System: 126254-015-R-J1-PDC complex spheroid growth, % test/control;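 further: spheroids exposed to compound for seven days; 100% = DMSO vehicle control wells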
Assay: Anticancer human tumor 126254-015-R-J1-PDC patient-derived soft tissue sarcoma cell line growth inhibition [Asc]
Details: second compound 1 µM; first compound 1 µM; hits give low values

| Molecule | viability, T/C |
| --- | --- |
| O=C(c1cc(Cc2n[nH]c(=O)c3ccccc23)ccc1F)N1CCN(C(=O)C2CC2)CC1 + Cc1c(S(C)(=O)=O)c(-c2cc(F)cc(N3CCN(c4ccc(NS(=O)(=O)c5ccc(NC(CCN6CCC(C(=O)OCCCP(=O)(O)O)CC6)CSc6ccccc6)c(S(=O)(=O)C(F)(F)F)c5)cc4)CC3)c2)c(-c2ccc(Cl)cc2)n1C(C)C | 71.3% |
| C#Cc1c(F)ccc2cc(O)cc(-c3ncc4c(N5CC6CCC(C5)N6)nc(OCC56CCCN5CC(F)C6)nc4c3F)c12 (stereo not drawn) + Cc1c(S(C)(=O)=O)c(-c2cc(F)cc(N3CCN(c4ccc(NS(=O)(=O)c5ccc(NC(CCN6CCC(C(=O)OCCCP(=O)(O)O)CC6)CSc6ccccc6)c(S(=O)(=O)C(F)(F)F)c5)cc4)CC3)c2)c(-c2ccc(Cl)cc2)n1C(C)C | 81.9% |
| O=C(c1ccc(F)c(F)c1Nc1ccc(I)cc1F)N1CC(O)([C@@H]2CCCCN2)C1 + CNC(C)C(=O)NC1CN(S(=O)(=O)c2cccc(S(=O)(=O)N3CCC4CCC(C(=O)NC(c5ccccc5)c5ccccc5)N4C(=O)C(NC(=O)C(C)NC)C3)c2)CCC2CCC(C(=O)NC(c3ccccc3)c3ccccc3)N2C1=O | 21.1% |
